# targetOfAssay: Beta-3 Adrenergic Receptor (Homo sapiens (Human), UniProt P13945)
# Sequence (P13945 whole entry, species assumed): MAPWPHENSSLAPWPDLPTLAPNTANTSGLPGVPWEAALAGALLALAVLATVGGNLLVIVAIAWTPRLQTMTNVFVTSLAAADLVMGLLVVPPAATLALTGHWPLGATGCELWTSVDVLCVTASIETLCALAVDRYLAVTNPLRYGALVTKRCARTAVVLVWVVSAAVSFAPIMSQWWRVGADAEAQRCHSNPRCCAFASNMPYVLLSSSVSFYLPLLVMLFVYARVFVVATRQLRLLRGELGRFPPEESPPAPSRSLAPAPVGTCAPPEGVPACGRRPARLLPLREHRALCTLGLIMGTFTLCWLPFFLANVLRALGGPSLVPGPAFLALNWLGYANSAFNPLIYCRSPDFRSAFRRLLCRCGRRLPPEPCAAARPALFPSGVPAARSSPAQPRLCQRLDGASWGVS
# assayRemarks: HTRF cAMP antagonist assay (IC50 determination)
# Format: cell-based
# conditions: CHO-K1 cells stably expressing recombinant receptor; antagonism of isoproterenol at EC90; cAMP readout
pIC50: −log10 of the molar value.
observable: pIC50

{"columns": ["compound", "targetOfAssay", "val"],
 "data": [
  ["CS(=O)(=O)Cc1cccc(OC[C@H](O)CNC2COC3(CCN(S(=O)(=O)c4ccc5ccccc5c4)CC3)C2)c1 (stereo partly drawn)", "Beta-3 Adrenergic Receptor (Homo sapiens (Human), UniProt P13945)", 6.95],
  ["CS(=O)(=O)c1cccc(OC[C@@H](O)CN[C@@H]2COC3(CCN(S(=O)(=O)c4ccc5ccccc5c4)CC3)C2)c1", "Beta-3 Adrenergic Receptor (Homo sapiens (Human), UniProt P13945)", 8.35],
  ["CCS(=O)(=O)c1cccc(OC[C@@H](O)CN[C@H]2COC3(CCN(S(=O)(=O)c4ccc5ncccc5c4)CC3)C2)c1", "Beta-3 Adrenergic Receptor (Homo sapiens (Human), UniProt P13945)", 7.40]
]}

A: O=S(=O)(c1cccnc1)N1CCC2(CC1)C[C@@H](NC[C@H](O)COc1cccc(S(=O)(=O)C3(CO)CC3)c1)CO2
B: O=C1NCc2ncc(S(=O)(=O)N3CCC4(CC3)C[C@@H](NC[C@H](O)COc3cccc(S(=O)(=O)C5CC5)c3)CO4)cc21
C: Cc1c(-c2ccc(C3(N)CC3)cc2)cccc1S(=O)(=O)N1CCC2(CC1)C[C@@H](NC[C@H](O)COc1cccc(S(=O)(=O)C3(CO)CC3)c1)CO2
D: NCc1ccc(-c2cccc(S(=O)(=O)N3CCC4(CC3)C[C@H](NC[C@H](O)COc3cccc(S(=O)(=O)C5(CO)CC5)c3)CO4)c2)cc1F
Request: Ordering criterion: pIC50; begin with the maximum. Reply format: the labels, ordered as requested.
Response: D, B, C, A
